System: Molp8
Test: proliferation assay (CellTiter-Glo), Molp8
Format: cell-based
Conditions: Homo sapiens, MOLP-8; Molp8 cells, 72-hour drug exposure
Readout Kind: IC50

Value of IC50 reported for the compound COc1c(OCCCN2CCOCC2)ccc2c1N=C(NC(=O)c1cnc(N)nc1)N1CCN=C21 is 0.023 µM

----------
System: KMS-12-PE
Assay: proliferation assay (CellTiter-Glo), KMS-12-PE
Assay type: cell-based
Details: Homo sapiens; KMS-12-PE cells, 72-hour drug exposure
Readout Kind: IC50 (µM)
Lab book: enter the figure in µM, no units written.

Value of IC50 reported for the molecule COc1c(OCCCN2CCOCC2)ccc2c1N=C(NC(=O)c1cnc(N)nc1)N1CCN=C21 [Compound A] is 0.067

----------
System: Molp2
Assay: proliferation assay (CellTiter-Glo), Molp2
Assay type: cell-based
Conditions: MOLP-2; Molp2 cells, 72-hour drug exposure
Readout Kind: pIC50
Give only the number. pIC50 is defined as minus log10 of concentration in molar units.

Value of pIC50 reported for the compound COc1c(OCCCN2CCOCC2)ccc2c1N=C(NC(=O)c1cnc(N)nc1)N1CCN=C21 is 7.92

Ref: patent US20110251191A1
